TARGET UNDER TEST: JAK3 kinase (Homo sapiens (Human))
ASSAY NAME: JAK3 Homogeneous Time Resolved Fluorescence (HTRF) Assay
Type: binding
CONDITION INFO: selectivity for IRAK4 over JAK3
Readings of Ratio of JAK3 IC50 to IRAK4 IC50 for the listed compounds

In: In one line, give reported Ratio of JAK3 IC50 to IRAK4 IC50 of the entry CC(C)Nc1c(C(=O)NC[C@@H](F)C(C)(C)O)cnn2cccc12 .
Out: >68

In: Kindly indicate its recorded Ratio of JAK3 IC50 to IRAK4 IC50. Item: CC(C)Nc1c(C(=O)NC[C@@H](F)C(C)(C)O)cnn2cc(-c3cccnc3F)cc12
Out: >1563

In: Please supply the value of reported Ratio of JAK3 IC50 to IRAK4 IC50 for the item CC(C)Nc1c(C(=O)NC[C@@H](F)C(C)(C)O)cnc2cc(-c3ccncc3)nn12
Out: >625

In: Report measured Ratio of JAK3 IC50 to IRAK4 IC50; entry is CC(C)Nc1c(C(=O)NC[C@@H](F)C(C)(C)O)cnc2cc(-c3cc[nH]c(=O)c3)nn12
Out: >538

----------
TARGET UNDER TEST: JAK3 kinase (Homo sapiens (Human), UniProt P52333)
Sequence (P52333 whole entry): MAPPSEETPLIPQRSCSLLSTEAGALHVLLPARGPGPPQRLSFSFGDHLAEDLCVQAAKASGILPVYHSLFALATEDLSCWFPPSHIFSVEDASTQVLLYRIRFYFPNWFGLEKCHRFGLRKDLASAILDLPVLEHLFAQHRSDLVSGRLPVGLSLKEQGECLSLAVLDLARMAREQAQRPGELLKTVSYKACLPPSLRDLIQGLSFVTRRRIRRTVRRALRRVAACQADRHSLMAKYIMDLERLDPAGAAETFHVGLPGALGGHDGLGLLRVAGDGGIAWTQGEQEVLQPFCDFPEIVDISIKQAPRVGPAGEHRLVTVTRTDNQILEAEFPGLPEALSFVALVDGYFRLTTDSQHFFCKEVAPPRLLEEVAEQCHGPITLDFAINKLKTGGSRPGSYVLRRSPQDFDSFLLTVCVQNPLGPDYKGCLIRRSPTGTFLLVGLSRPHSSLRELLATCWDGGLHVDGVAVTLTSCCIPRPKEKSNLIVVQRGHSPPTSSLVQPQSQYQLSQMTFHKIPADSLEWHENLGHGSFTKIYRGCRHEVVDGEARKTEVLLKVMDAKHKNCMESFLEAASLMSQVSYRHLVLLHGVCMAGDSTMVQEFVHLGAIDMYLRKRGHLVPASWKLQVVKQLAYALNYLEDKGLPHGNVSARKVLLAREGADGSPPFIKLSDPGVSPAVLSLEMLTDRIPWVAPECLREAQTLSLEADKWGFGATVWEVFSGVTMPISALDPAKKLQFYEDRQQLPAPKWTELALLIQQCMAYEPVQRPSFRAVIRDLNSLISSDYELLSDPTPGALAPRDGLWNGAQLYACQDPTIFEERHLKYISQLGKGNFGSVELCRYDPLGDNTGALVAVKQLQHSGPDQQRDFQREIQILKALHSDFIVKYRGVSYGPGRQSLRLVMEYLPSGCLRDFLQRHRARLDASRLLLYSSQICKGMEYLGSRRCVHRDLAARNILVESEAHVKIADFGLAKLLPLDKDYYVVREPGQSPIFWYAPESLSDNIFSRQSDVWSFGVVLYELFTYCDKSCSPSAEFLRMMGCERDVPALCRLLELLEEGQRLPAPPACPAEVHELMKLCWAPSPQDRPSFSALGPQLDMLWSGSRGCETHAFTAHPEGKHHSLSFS
ASSAY NAME: JAK3 Homogeneous Time Resolved Fluorescence (HTRF) Assay
Format: binding
CONDITION INFO: selectivity for IRAK4 over JAK3
REPORTED ENDPOINT: Ratio of JAK3 IC50 to IRAK4 IC50

In: Answer with the recorded Ratio of JAK3 IC50 to IRAK4 IC50 for the compound listed here: CC(C)Nc1c(C(=O)NC[C@@H](F)C(C)(C)O)cnc2cc(-c3cnn(C)c3)nn12
Out: >208

----------
pIC50: −log10 of the molar value.
JAK3 kinase (Homo sapiens (Human), UniProt P52333) data, read-out pIC50

Sample answers from the record:
INSERT INTO measurements (smiles_str, observed_value) VALUES
  ('COc1ncccc1-c1cc2ncc(C(=O)NC[C@@H](F)C(C)(C)O)c(NC(C)C)n2n1', '< 5.00'),
  ('CC(=O)N[C@H]1CC[C@H](NC(=O)c2cnn3cc(-c4ccc(C(N)=O)cc4F)cc3c2NC(C)C)CC1', '< 4.30'),
  ('CC(C)Nc1c(C(=O)NC[C@@H](F)C(C)(C)O)cnc2cc(-c3cnn(C)c3)nn12', '< 4.30'),
  ('CC(C)Nc1c(C(=O)NC[C@@H](F)C(C)(C)O)cnc2cc(-c3cccc(F)c3)nn12', '< 4.30');

// moving on: another record for pIC50
In: Answer briefly: pIC50 recorded on JAK3 kinase (Homo sapiens (Human), UniProt P52333) for CC(C)(O)[C@H](F)CNC(=O)c1cnc2cc(-c3cccnc3)nn2c1N[C@H]1CC[C@H](C(C)(C)O)CC1
Out: < 4.30

----------
TARGET UNDER TEST: IRAK4 (Homo sapiens (Human))
Sequence (Q9NWZ3 whole entry, species assumed): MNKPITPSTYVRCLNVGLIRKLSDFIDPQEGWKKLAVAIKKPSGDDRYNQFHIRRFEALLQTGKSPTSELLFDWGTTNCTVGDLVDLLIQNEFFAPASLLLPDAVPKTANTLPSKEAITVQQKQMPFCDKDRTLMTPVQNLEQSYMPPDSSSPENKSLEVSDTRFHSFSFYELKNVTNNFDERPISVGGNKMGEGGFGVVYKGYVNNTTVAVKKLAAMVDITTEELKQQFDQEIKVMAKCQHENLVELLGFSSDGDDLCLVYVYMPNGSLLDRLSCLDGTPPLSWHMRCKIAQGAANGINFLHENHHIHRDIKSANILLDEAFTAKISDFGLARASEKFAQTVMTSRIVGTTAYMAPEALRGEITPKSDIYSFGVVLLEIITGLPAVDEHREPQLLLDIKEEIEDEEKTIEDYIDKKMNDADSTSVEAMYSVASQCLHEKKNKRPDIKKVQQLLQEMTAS
ASSAY NAME: IRAK4 Inhibition Assay
Assay type: biochemical
CONDITION INFO: ATP 500 μM; IRAK4 0.6 nM; 60 min room temperature
REPORTED ENDPOINT: pIC50
The meaning of pIC50 here: minus log10 of the concentration in molar units.

# example entries with known answers
INSERT INTO results (smiles_str, reported_endpoint, observed_value) VALUES
  ('CC(=O)N[C@H]1CC[C@H](NC(=O)c2cnn3cc(-c4cccnc4)cc3c2NC(C)C)CC1', 'pIC50', 8.23),
  ('CC(C)(O)[C@H](F)CNC(=O)c1cnn2cc(-c3cccnc3)cc2c1NC1CCCC1', 'pIC50', 7.26);

In: Supply reported pIC50 belonging to this compound: CC(C)Nc1c(C(=O)NC2CCN(S(C)(=O)=O)CC2)cnn2cc(-c3ccncc3F)nc12
Out: 7.89
